- target.desc: T1, CRBN, Q96SW2;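 also: pooled lentiviral library of zinc finger degron-EGFP fusions in mCherry-positive Jurkat cells, FACS-sorted after compound exposure, with degron abundance counted by next-generation sequencing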
- T1 chain: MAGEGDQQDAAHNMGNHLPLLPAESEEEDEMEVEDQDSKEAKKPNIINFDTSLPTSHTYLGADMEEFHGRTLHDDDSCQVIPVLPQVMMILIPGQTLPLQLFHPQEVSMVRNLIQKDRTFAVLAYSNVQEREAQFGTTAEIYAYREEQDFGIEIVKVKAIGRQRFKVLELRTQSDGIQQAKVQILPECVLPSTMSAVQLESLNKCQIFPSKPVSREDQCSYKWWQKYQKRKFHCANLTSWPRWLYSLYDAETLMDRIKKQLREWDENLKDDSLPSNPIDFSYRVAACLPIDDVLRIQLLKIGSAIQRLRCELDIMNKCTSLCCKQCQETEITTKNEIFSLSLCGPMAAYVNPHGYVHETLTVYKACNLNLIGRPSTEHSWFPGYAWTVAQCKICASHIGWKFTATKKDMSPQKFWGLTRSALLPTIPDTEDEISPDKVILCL
- protocol.summary: log2 fold change of degron read counts, EGFP-low vs EGFP+ sorted cells (limma voom), compound-induced degradation; higher = more compound-induced degradation of the degron-EGFP fusion; degrons are variants of IKZF1/3 zinc finger 2; compound dose not given here
- condition.details: Jurkat; 18 h; compound: compound 22 (5-morpholino-thalidomide)
The full ranking holds about 8,300 sequences; the median of “log2 fold change of degron read counts, EGFP-low vs EGFP+ sorted cells (limma voom), compound-induced degradation” is about -1.1, and the highest 2% start at about 3.2. This excerpt belongs to a sample that is enriched for the highest values.
attribute.measured: log2 fold change of degron read counts
Answer with a number only.

Find the measured log2 fold change of degron read counts of FKCEICGHFFTQKGNLLRHIKL [46F_47K_49E_50I_52G_53H_54F_55F_67L_, Q9UKT9] and report it.
-2.68

Find the measured log2 fold change of degron read counts of FVCPVCGALFTQKGNLLRHIKL [46F_47V_49P_50V_52G_53A_54L_55F_67L_, Q9UKT9] and report it.
0.353

Find the measured log2 fold change of degron read counts of FNCNICGANFTQKGNLLRHIKL [46F_47N_49N_50I_52G_53A_54N_55F_67L_, Q9UKT9] and report it.
-0.0154

Find the measured log2 fold change of degron read counts of FQCNICGAEFTQKGNLLRHIKL [46F_47Q_49N_50I_52G_53A_54E_55F_67L_, Q9UKT9] and report it.
0.376
